- ASSAY DETAILS: Observed apparent oral clearance in Sprague-Dawley rat at 5 mg/kg, po measured up to 24 hrs by LC-MS/MS analysis
- Type: ADME, organism-based
- EXPERIMENTAL CONTEXT: in vivo
Please provide measured CL/F for the entries that follow.
Numbers only here, please. The scale is mL/min/kg.

## Task Request the reported CL/F associated with N#Cc1ccc(COc2cccc(C3CCN(Cc4nc5ccc(C(=O)O)cc5n4C[C@@H]4CCO4)CC3)n2)c(F)c1
## Result 135

## Task Can you check O=C(O)c1ccc2nc(CN3CCC(Oc4cccc(COc5ccc6cnn(CC(F)F)c6c5F)n4)CC3)n(C[C@@H]3CCO3)c2n1 next?
## Result 2210

## Task Then what about the molecule O=C(O)c1ccc2nc(CN3CC=C(c4cccc(OCc5ccc(C6CC(F)(F)C6)cc5F)n4)CC3)n(C[C@@H]3CCO3)c2n1 ?
## Result 65.8

## Task Subsequent entry: O=C(O)c1ccc2nc(CN3CC=C(c4cccc(OCc5ccc(C6CC(F)(F)C6)cc5F)n4)CC3)n(C[C@@H]3CCO3)c2c1
## Result 1230
